test system: MYB mRNA; assay: Splicing RT-qPCR assay, canonical (CJ) and alternative (AJ) junction mRNA, K562 cells; assay type: cell-based; details: Homo sapiens, K562.3 cells, 24 hours, read-out: MYB AJ (AC50, increase in AJ mRNA)
measured_attribute: AC50

The examples below pair each entry with its known result.
// field: AC50; key: CCNC1CCN(c2ccc(C(=O)Nc3cn4cc(C)nc4c(OC)n3)c3nn(C)cc23)CC1 [Compound 206] ; value = < 100 nM

// field: AC50; key: Cc1cn2cc(NC(=O)c3ccc(N4CCC(NC5CC5)CC4)c4ccoc34)cc(F)c2n1 [Compound 191] ; value = 100 to 1000 nM

// field: AC50; key: CCNC1CCN(c2ccc(C(=O)Nc3cn4cc(C)nc4c(F)c3OC)c3[nH]ccc23)CC1 [Compound 171] ; value = > 10000 nM

// field: AC50; key: Cc1cn2cc(C(=O)Nc3ccc(N4CCNCC4)c4cn[nH]c34)cc(F)c2n1 [Compound 214] ; value = > 10000 nM

// field: AC50; key: CNC1(C)CCN(c2cc(F)c(C(=O)Nc3cn4cc(C)nc4c(F)c3OC)c3nn(C)cc23)CC1 [Compound 180] ; value = < 100 nM

***
// field: AC50; key: CN[C@H]1C[C@@H](C)N(c2ccc(C(=O)Nc3cc(F)c4nc(C)cn4c3)c3nn(C)cc23)C1 (single isomer, unassigned) [Compound 128] ; value = 100 to 1000 nM

// field: AC50; key: Cc1cn2cc(NC(=O)c3ccc(N4CC[C@@H](NCC5COC5)C4)c4cn(C)nc34)cc(F)c2n1 [Compound 104] ; value = < 100 nM

// field: AC50; key: CN[C@H]1C[C@H](C)N(c2ccc(C(=O)Nc3cc(F)c4nc(C)cn4c3)c3nn(C)cc23)C1 [Compound 127] ; value = > 10000 nM
